Data credit: patent US20230165867A1

assay: Pharmacokinetic assay in ICR mice (i.v. and p.o.); assay type: in vivo; details: mouse, plasma; male ICR mice, po, 10 mg/kg; read-out: T½ (converted)
Flag rule - half-life less than 3 h flags Condition met; the remaining entries get Condition not met.

1) Cc1cc(C(N)=O)c(F)cc1Nc1ncc2c(n1)n([C@H]1CC[C@@H](C#N)CC1)c(=O)n2C | Condition not met
2) Cc1cc(C(N)=O)c(F)cc1Nc1ncc2c(n1)n([C@H]1CC[C@](C)(O)CC1)c(=O)n2C | Condition met
3) Cc1cc(C(N)=O)c(F)cc1Nc1ncc2c(n1)n([C@@H]1CCOC1)c(=O)n2C | Condition met
4) Cc1cc(C(N)=O)c(F)cc1Nc1ncc2c(n1)n([C@H]1CCOC1)c(=O)n2C | Condition met
5) CNC(=O)c1ccc(Nc2ncc3c(n2)n(C2CCOCC2)c(=O)n3C)c(C)c1 | Condition met

---

assay: Pharmacokinetic assay in ICR mice (i.v. and p.o.); format: in vivo; conditions: mouse, plasma; male ICR mice, po, 10 mg/kg
readout-type: Cmax (ng/mL)

1. Cc1cc(C(N)=O)ccc1Nc1ncc2c(n1)n(C1CCOCC1)c(=O)n2C | 449
2. CNC(=O)c1ccc(Nc2ncc3c(n2)n(C2CCOCC2)c(=O)n3C)c(C)c1 | 5450
3. COc1cc(C)c(Nc2ncc3c(n2)n(C2CCOCC2)c(=O)n3C)cn1 | 1490
4. Cc1sc(C(N)=O)cc1Nc1ncc2c(n1)n(C1CCOCC1)c(=O)n2C | 858
5. CCn1c(=O)n(C2CCOCC2)c2nc(Nc3cc(F)c(C(N)=O)cc3C)ncc21 | 1850
6. Cc1cc(C(N)=O)c(F)cc1Nc1ncc2c(n1)n([C@H]1CC[C@@H](C#N)CC1)c(=O)n2C | 1750

---

molecular target: DNA-PK kinase (Homo sapiens, UniProt P78527); construct: purchased Promega V4107; experiment: Inhibition assay of DNA-PK kinase (Promega kit, ADP-Glo chemiluminescence); format: biochemical; details: 50 µM ATP, 37° C., 60 min; read-out: IC50 (nM), inhibitory activity on DNA-PK kinase
readout-type: IC50 (nM)

1. Cc1cc(F)ccc1Nc1ncc2c(n1)n(C1CCOCC1)c(=O)n2C [Compound 7] | 5.47
2. Cc1cc(C(N)=O)c(F)cc1Nc1ncc2c(n1)n(C1CCC(O)C1)c(=O)n2C (stereo not shown) [Compound 67] | 2.96
3. Cc1cc(C#N)ccc1Nc1ncc2c(n1)n([C@H]1CC[C@@H](C#N)CC1)c(=O)n2C [Compound 78] | 0.038
4. Cc1sc(C(N)=O)cc1Nc1ncc2c(n1)n(C1CCOCC1)c(=O)n2C [Compound 42] | 2.05
5. CNC(=O)c1ccc(Nc2ncc3c(n2)n(C2CCOCC2)c(=O)n3C)c(C)c1 [Compound 27] | 4.36
6. Cc1cc(C#N)ccc1Nc1ncc2c(n1)n(C1CC3COCC3C1)c(=O)n2C (stereo not shown) [Compound 100] | 2.2
7. Cc1cc(C(N)=O)c(F)cc1Nc1ncc2c(n1)n([C@H]1C[C@@H](O)C1)c(=O)n2C [Compound 94] | 7.2
8. [2H]C([2H])([2H])C([2H])([2H])n1c(=O)n(C2CCOCC2)c2nc(Nc3cc(F)c(C(N)=O)cc3C)ncc21 [Compound 105] | 5.54
9. Cc1cc(C(N)=O)c(F)cc1Nc1ncc2c(n1)n(C1CCC3(CC1)COC3)c(=O)n2C [Compound 86] | 0.44
10. Cc1cc(C(N)=O)c(F)cc1Nc1ncc2c(n1)n(C1CCCC(C)(O)C1)c(=O)n2C (stereo not shown) [Compound 91] | 2.44

---

assay: Pharmacokinetic assay in ICR mice (i.v. and p.o.); format: in vivo; conditions: mouse, plasma; male ICR mice, po, 10 mg/kg
readout-type: AUC (ng·h/mL)

1) Cc1cc(C(N)=O)c(F)cc1Nc1ncc2c(n1)n([C@H]1CC[C@@](C)(O)CC1)c(=O)n2C | 28200
2) Cc1cc(C(N)=O)c(F)cc1Nc1ncc2c(n1)n([C@H]1CC[C@@H](C#N)CC1)c(=O)n2C | 5970
3) Cc1cc(C#N)ccc1Nc1ncc2c(n1)n(C1CCOCC1)c(=O)n2C | 2270
4) Cc1cc(C(N)=O)c(F)cc1Nc1ncc2c(n1)n([C@H]1CC[C@H](C#N)CC1)c(=O)n2C | 4440
5) Cc1cc(C(N)=O)c(F)cc1Nc1ncc2c(n1)n(C1CCOCC1)c(=O)n2C | 6280
6) CCn1c(=O)n(C2CCOCC2)c2nc(Nc3cc(F)c(C(N)=O)cc3C)ncc21 | 4720
7) COc1cc(C)c(Nc2ncc3c(n2)n(C2CCOCC2)c(=O)n3C)cn1 | 1660
8) Cc1cc(C(N)=O)c(F)cc1Nc1ncc2c(n1)n([C@H]1CCOC1)c(=O)n2C | 756

---

Property: IC50; scope: individual compounds
molecular target: DNA-PK kinase (Homo sapiens, UniProt P78527); construct: purchased Promega V4107; experiment: Inhibition assay of DNA-PK kinase (Promega kit, ADP-Glo chemiluminescence); type: biochemical; details: 50 µM ATP, 37° C., 60 min; read-out: IC50 (nM), inhibitory activity on DNA-PK kinase
readout-type: IC50

1. CCNC(=O)c1ccc(Nc2ncc3c(n2)n(C2CCOCC2)c(=O)n3C)c(C)c1 [Compound 29] | 3.9 nM
2. Cc1cc(C(N)=O)c(F)cc1Nc1ncc2c(n1)n(C1C[C@@H]3COC[C@H]3C1)c(=O)n2C [Compound 99] | 2.13 nM
3. Cc1cc(C(N)=O)c(F)cc1Nc1ncc2c(n1)n(C1C[C@H]3CC(O)C[C@H]3C1)c(=O)n2C (some centres unmarked) [Compound 84] | 0.24 nM
4. Cc1cc(C(N)=O)c(F)cc1Nc1ncc2c(n1)n(C1CC3CCC(C1)O3)c(=O)n2C (centres unmarked) [Compound 85] | 1.1 nM
5. Cc1cc(C(N)=O)c(F)cc1Nc1ncc2c(n1)n([C@H]1CCOC1)c(=O)n2C [Compound 75] | 5.69 nM
6. Cc1cc(C#N)c(F)cc1Nc1ncc2c(n1)n(C1CCOCC1)c(=O)n2C [Compound 8] | 11.7 nM
7. Cc1cc(C(N)=O)c(F)cc1Nc1ncc2c(n1)n([C@H]1CC[C@H](C#N)CC1)c(=O)n2C [Compound 79] | 1.86 nM
8. Cc1cc(C(N)=O)c(F)cc1Nc1ncc2c(n1)n(C1CC3(COC3)C1)c(=O)n2C [Compound 89] | 3.83 nM

---

test: Pharmacokinetic assay in ICR mice (i.v. and p.o.); type: in vivo; settings: mouse, plasma; male ICR mice, po, 10 mg/kg; read-out: T½ (converted)
Flag rule - half-life less than 2 h flags Yes; the remaining entries get No.

1. CNC(=O)c1cc(C)c(Nc2ncc3c(n2)n(C2CCOCC2)c(=O)n3C)cn1 | No
2. Cc1sc(C(=O)O)cc1Nc1ncc2c(n1)n(C1CCOCC1)c(=O)n2C | No
3. [2H]C([2H])([2H])n1c(=O)n(C2CCOCC2)c2nc(Nc3ccc(C#N)cc3C)ncc21 (single isomer, unassigned) | Yes
4. Cc1cc(C(N)=O)ncc1Nc1ncc2c(n1)n(C1CCOCC1)c(=O)n2C | No
5. Cc1cc(C#N)ccc1Nc1ncc2c(n1)n([C@H]1CC[C@H](C#N)CC1)c(=O)n2C | No
6. Cc1cc(C(N)=O)c(F)cc1Nc1ncc2c(n1)n([C@H]1CC[C@@](C)(O)CC1)c(=O)n2C | No
7. Cc1cc(C#N)ccc1Nc1ncc2c(n1)n([C@H]1CC[C@@H](C#N)CC1)c(=O)n2C | No
8. Cc1sc(C(N)=O)cc1Nc1ncc2c(n1)n(C1CCOCC1)c(=O)n2C | Yes
9. Cc1cc(C(N)=O)c(F)cc1Nc1ncc2c(n1)n(C1CCOCC1)c(=O)n2C | No
10. COc1cc(C)c(Nc2ncc3c(n2)n(C2CCOCC2)c(=O)n3C)cn1 | Yes
11. [2H]C([2H])([2H])Oc1cc(C)c(Nc2ncc3c(n2)n(C2CCOCC2)c(=O)n3C)cn1 | Yes
12. Cn1c(=O)n(C2CCOCC2)c2nc(Nc3ccc(C(N)=O)cc3Cl)ncc21 | No
13. Cc1cc(C#N)ccc1Nc1ncc2c(n1)n(C1CCOCC1)c(=O)n2C | No
14. Cc1cc(C(N)=O)c(F)cc1Nc1ncc2c(n1)n([C@H]1CC[C@H](C#N)CC1)c(=O)n2C | No
15. Cc1cc(C(N)=O)ccc1Nc1ncc2c(n1)n(C1CCOCC1)c(=O)n2C | Yes
16. CCNC(=O)c1ccc(Nc2ncc3c(n2)n(C2CCOCC2)c(=O)n3C)c(C)c1 | Yes
